Test system: HCC-2998 colon
Assay: NCI tumour cell line growth inhibition, 48 h; in the data active means GI50 below about 0.43 µM; inactive means the rest
Outcome codes: active, inactive

# compound, group.label
rows = [
    ("O=C(N/N=C/c1ccncc1)c1ccc(F)cc1", "inactive"),
    ("O=C1OCC2=C1C(c1cccc(Cl)c1)c1cc3c(cc1N2CCO)CCC3 (stereo not given)", "active"),
    ("CC(=O)N1N=C(c2ccc(C)cc2)CC1c1cn(-c2ccccc2)nc1-c1cccc(Nc2ccnc3cc(Cl)ccc23)c1 (stereo not given)", "inactive"),
    ("CC(=O)N[C@@H](Cc1ccc(OP(=O)(O)O)cc1)C(=O)N[C@H]1CCC(=O)N2CCC[C@@H](C(=O)NC3CCc4ccccc43)N2C1=O (stereo not given in full)", "inactive"),
    ("Cc1cc(C)c2c(c1)N(C)c1ncnc(-n3cnc4cc(C)ccc43)c1CC2C (stereo not given)", "inactive"),
    ("O=C(CN1CCN(C(=O)c2ccco2)CC1)Nc1ccc(Cl)cc1C(=O)c1ccccc1Cl", "inactive"),
    ("O=C(Nc1cccc(-n2cc(-c3ccncc3)c(-c3ccc(Cl)c(O)c3)n2)c1)Nc1ccc(Cl)c(Cl)c1", "inactive"),
    ("O=C(NN1C(=O)CSC1c1c(Cl)cccc1Cl)C(O)c1ccccc1 (stereo not given)", "inactive"),
    ("COCCn1c2c([n+](Cc3cnccn3)c1C)C(=O)c1ccccc1C2=O", "active"),
    ("COc1cc(N(CCCl)CCCl)ccc1/C=N\\NC(=O)c1cccnc1", "inactive"),
    ("CC[C@@H](C)/C=C(C)/C=C/C(=O)c1c(O)c(-c2ccc(O)cc2)cn(OC2CC(=O)CCC(C)OC(=O)CC2O)c1=O (stereo not given in full)", "inactive"),
    ("C[C@]12CC[C@@H]3c4ccc(OC(=O)N(CCCl)CCCl)cc4CC[C@H]3[C@@H]1CC[C@@H]2OP(=O)(O)O", "inactive"),
    ("CC[C@@]1(O)C(=O)OCc2c1cc1n(c2=O)Cc2c-1nc1cc(F)c(C)c3c1c2[C@@H](NC(=O)CO)CC3", "active"),
    ("COC(=O)[C@]12CC[C@@H](C)[C@H](C)[C@@H]1C1=CC[C@@H]3[C@@](C)(CC#N)C4=C(C[C@@]3(C)[C@]1(C)CC2)OC[C@]4(C)C=O", "inactive"),
    ("Cn1c(=O)c(Oc2ccc(F)cc2F)cc2cnc(NCC(C)(C)O)nc21", "inactive"),
]

###

Reported GI50 is given for each of the following molecules.
System: NCI-H460 lung
Test: NCI tumour cell line growth inhibition, 48 h

# molecule, GI50
rows = [
    ("COC(=O)[C@]12CC[C@@H](C)[C@H](C)[C@@H]1C1=CC[C@@H]3[C@@](C)(CC#N)C4=C(C[C@@]3(C)[C@]1(C)CC2)OC[C@]4(C)C=O", "10.5 µM"),
    ("C#CCNC(=O)CC[C@@H](C)[C@H]1CC[C@H]2[C@@H]3CC[C@@H]4CC(=O)CC[C@]4(C)[C@H]3CC[C@]12C", "22 µM"),
    ("Cn1c(=O)c(Oc2ccc(F)cc2F)cc2cnc(NCC(C)(C)O)nc21", "> 25 µM"),
    ("COc1cc(C2CC(c3cccc(Nc4ccnc5cc(Cl)ccc45)c3)=NN2c2ccccc2)cc(OC)c1OC (stereo not given)", "3.27 µM"),
    ("O=C(CCN1CCCN(c2cnc3ccccc3n2)CC1)c1csc2ccccc12", "32.8 µM"),
]

###

TGI: recorded values
Test system: KM20L2 colon
Assay: NCI tumour cell line growth inhibition, 48 h

# molecule, target.desc, TGI
records = [
    ("CCN(CC)C(=O)CC12CCCCC1=Nc1ccccc12 (stereo not drawn)", "KM20L2 colon", "> 100 µM"),
    ("O=C(CC(=O)c1cccc([N+](=O)[O-])c1)C(=O)Nc1ccccc1", "KM20L2 colon", "> 100 µM"),
    ("COc1ccc2nc3ccccc3c(NCCN(CCCl)CCCl)c2c1", "KM20L2 colon", "2.4 µM"),
    ("CC1=CC[C@@H](C(C)(C)O)C[C@@H]1O", "KM20L2 colon", "> 5000 µM"),
    ("CC1OC(CO)(n2cnc3c(N)ncnc32)C(O)C1O (stereo not drawn)", "KM20L2 colon", "> 100 µM"),
    ("Cn1c(=O)n(C2(C)CSC2)c2ccccc21", "KM20L2 colon", "> 100 µM"),
    ("O=C(Cc1nc2ccccc2o1)C(=O)Nc1ccc(Cl)cc1Cl", "KM20L2 colon", "> 100 µM"),
    ("CC[As](CC)SCC1OC(OC(C)=O)C(OC(C)=O)C(OC(C)=O)C1OC(C)=O (stereo not drawn)", "KM20L2 colon", "32.7 µM"),
]

###

Tested on: MOLT-4 leukemia
Experiment: NCI tumour cell line growth inhibition, 48 h; in the data active = GI50 below about 0.43 µM; inactive = the rest
Classes used: active, inactive

# compound, target.desc, group.label
measured = [
    ("O=c1/c(=C\\c2ccc(Br)cc2)sc2n1C(c1ccc(Br)cc1)C1=C(N=2)c2ccc3ccccc3c2OCC1 (centres undefined)", "MOLT-4 leukemia", "inactive"),
    ("C#CCNC(=O)CC[C@@H](C)[C@H]1CC[C@H]2[C@@H]3CC[C@@H]4CC(=O)CC[C@]4(C)[C@H]3CC[C@]12C", "MOLT-4 leukemia", "inactive"),
    ("COc1ccc(/C=C\\c2cc(OC)c(OC)c(OC)c2)c(NS(=O)(=O)c2ccc(F)cc2)c1O", "MOLT-4 leukemia", "active"),
    ("CCCCOC(=O)c1c(C)[nH]c(/C=C2\\N=C(c3ccc[nH]3)C=C2OC)c1C", "MOLT-4 leukemia", "active"),
    ("O=C(CN1CCN(C(=O)c2ccco2)CC1)Nc1ccc(Cl)cc1C(=O)c1ccccc1Cl", "MOLT-4 leukemia", "inactive"),
    ("O=C1OCC2=C1C(c1cccc(Cl)c1)c1cc3c(cc1N2CCO)CCC3 (centres undefined)", "MOLT-4 leukemia", "active"),
    ("C[C@]12CC[C@@H]3c4ccc(OC(=O)N(CCCl)CCCl)cc4CC[C@H]3[C@@H]1CC[C@@H]2OP(=O)(O)O", "MOLT-4 leukemia", "inactive"),
    ("COc1cc(C(=O)NN=C2c3ccccc3-c3ccccc32)cc(OC)c1OC", "MOLT-4 leukemia", "inactive"),
    ("Cc1cc(C)c2c(c1)N(C)c1ncnc(-n3cnc4cc(C)ccc43)c1CC2C (centres undefined)", "MOLT-4 leukemia", "inactive"),
]

###

Tested on: HCT-116 colon
Test: NCI tumour cell line growth inhibition, 48 h
Quick reference for TGI among some compounds

# compound, TGI
rows = [
    ("C[C@@H]1CC[C@@]2(C)[C@H](C)/C(=C\\COC(=O)/C=C/c3ccc(O)c(O)c3)CC[C@@]12C", "14 µM"),
    ("NC(CSCSCC(N)C(=O)O)C(=O)O (centres undefined)", "> 225 µM"),
    ("CC/C(=C(/c1ccc(OCCN(C)C)cc1)c1ccc(OC(=O)CCCCCCCCC(=O)c2c(C)[nH]c(/C=C3\\N=C(c4ccc[nH]4)C=C3OC)c2C)cc1)c1ccccc1", "21.8 µM"),
    ("C=C(C)[C@H]1CC(=O)[C@@]2(C)C[C@H]3O[C@]3(C)CC/C=C(\\C)CC[C@H]12", "85.4 µM"),
]

###

System: SF-539 CNS
Assay: NCI tumour cell line growth inhibition, 48 h; in the data active = GI50 below about 0.43 µM; inactive = the rest
Classes used: YES (active), NO (inactive)

# compound, group.label
measured = [
    ("C[C@]12CC[C@H]3[C@@H](CC[C@]4(O)C[C@@H](O[C@@H]5O[C@H](CO)[C@@H](O[C@@H]6OC[C@@H](O)[C@H](O)[C@H]6O)[C@H](O)[C@H]5O)CC[C@]34C=O)[C@@]1(O)CC[C@@H]2C1=CC(=O)OC1", "NO"),
    ("COc1cc(N(CCCl)CCCl)ccc1/C=N\\NC(=O)c1cccnc1", "NO"),
    ("CCCCCCCCCCCCCCCCCCOc1ccccc1COP(=O)(O)OOCC[N+](C)(C)C", "NO"),
    ("C[C@]12CC[C@@H]3c4ccc(OC(=O)N(CCCl)CCCl)cc4CC[C@H]3[C@@H]1CC[C@@H]2OP(=O)(O)O", "NO"),
    ("COC(=O)[C@]12CC[C@@H](C)[C@H](C)[C@@H]1C1=CC[C@@H]3[C@@](C)(CC#N)C4=C(C[C@@]3(C)[C@]1(C)CC2)OC[C@]4(C)C=O", "NO"),
    ("Cn1c(=O)c(Oc2ccc(F)cc2F)cc2cnc(NCC(C)(C)O)nc21", "NO"),
    ("Cc1cc(-c2cc(OC(=O)c3ccccc3)ccc2Cl)cc2nnc(Nc3ccc(OCCN4CCCC4)cc3)nc12", "NO"),
    ("O=c1/c(=C\\c2ccc(Br)cc2)sc2n1C(c1ccc(Br)cc1)C1=C(N=2)c2ccc3ccccc3c2OCC1 (stereo not drawn)", "NO"),
    ("O=C(CN1CCN(C(=O)c2ccco2)CC1)Nc1ccc(Cl)cc1C(=O)c1ccccc1Cl", "NO"),
    ("Nc1n[nH]c2ccc([C@@H]3Nc4ccc5cn[nH]c5c4[C@H]4C5CCC(C5)[C@@H]34)cc12 (stereo partly drawn)", "YES"),
    ("CCN(CC)CC(O)c1cc(-c2ccc(Cl)cc2)nc2c(C)c(Cl)ccc12 (stereo not drawn)", "NO"),
    ("CCC(C)C1NC(=O)C(NC(=O)C(CC(C)C)N(C)C(=O)[C@@H]2CC(O)CN2C(=O)[C@H](C)O)C(C)OC(=O)[C@H](Cc2ccc(OC)cc2)N(C)C(=O)[C@@H]2CCCN2C(=O)[C@H](CC(C)C)NC(=O)C(C)C(=O)[C@H](C(C)C)OC(=O)CC1O (stereo partly drawn)", "YES"),
    ("CN(C)C1CN(C(=O)c2cc(-c3ccc4ncnc(N5CCc6cc(F)c(Cl)cc65)c4c3)cnc2N)C1", "NO"),
]
